test system: MS2 coat protein; assay: apparent KD of MS2 coat protein; higher = weaker reporter binding; settings: Eterna round: R107; input ligand: arginine 13.2 mM
apparent KD of MS2 coat protein values by entry
Please respond with the number in µM and leave the unit unwritten.

-- ask For ACUGCUUUAGCGGCCGCCACUACAUGGACACUUACACUUUCUUGUUACAUGAGGAUCACCCAUGUUAGGACCGGGCUUGUACGGA [theeternabot_exclusion_MS2_Trp_B_31] , what is its reported apparent KD of MS2 coat protein?
-- reply 0.0305

-- ask I'd like to know its apparent KD of MS2 coat protein. The sequence in question is ACAUGAGGAUCACCCAUGUCAGGGCACGAUACCAGCUGAUCCGAUGGCCCUUGGCAGCGUUACGUGUGGUCAUGAGGAUCACCCG [pjbmullin]
-- reply 0.0555

-- ask Quick one: apparent KD of MS2 coat protein of GUUGGACUUUCGGCCGCCACUGAGAGAGUCAUGUGAACAUGAGGAUCACCCAUGUAAUAUAUAUACAGGACCGGGAGGGUUGUAA [4.M] ?
-- reply 0.0117

Further cases:
-- ask Endpoint output: apparent KD of MS2 coat protein of AAACAUUGCUGCGAUACCAGACAUGAGGAUCACCCAUGUACCAAGAAAACGUACAUAAAUGUCCCUUGGCAGCGCAGCAAUGAAA [MAT - Exclusion Theophlline B - Mod of Eli - D27] . Value?
-- reply 0.216

-- ask May I ask what apparent KD of MS2 coat protein has been recorded for ACAUGAGGAUCACCCAUGUUCCUCAUUGAUACCAGUGAAUUUAGACGCCCUUGGCAGCGAGUUUUUUUAUAAGAUGUUUUUUUUU [6.H] ?
-- reply 0.244

-- ask Item UCGACAGUGAACGAUACCAGCGUCACGUGGCCGGUGGUCACAUGAGGAUCACCCAUGUAACGCCCUUGGCAGCGUGCACGUAUCC [Berisoor] has what recorded apparent KD of MS2 coat protein?
-- reply 0.0175

###

Parameter: apparent KD of MS2 coat protein. Scope: all listed entries.
tested on: MS2 coat protein; test: apparent KD of MS2 coat protein; designed switch direction (-1 OFF switch, 1 ON switch): -1; higher = weaker reporter binding; details: Eterna round: R95; input ligand: microRNA oligo, concentration not stated
State the answer as a number, implicitly in nM.

# example entries with known answers
-- ask apparent KD of MS2 coat protein lookup needed for GGUACUAACAGCUGACUGUUAGUACUGUAGGUUUGUGUUACAUGAGGAUCACCCAUGUCCUCAUAGGCUCGUCUUGU [JL-sv3-2.24 mat747 mod] (puzzle: Sensor v3, turn-off variant 2) , thanks.
-- reply 91.5

-- ask What does the record list as apparent KD of MS2 coat protein for CAUGAUCUUCGGAUCAUGUACAUGAGGAUCACCCAUGUGACGAGUAUAUCUUCAAACAAGCUUUUUGCUCGUCUUAU [Sensor v3 - Turn-off variant 1 - 23] (puzzle: Sensor v3, turn-off variant 1) ?
-- reply 49.8

-- ask I am curious: what apparent KD of MS2 coat protein value has been reported for GUGAUAUAGUUAGUGGCCUACAUGAGGAUCACCCAUGUGAGGGAAAUGUUGAGGCGAAAGUUGUGUGCUCGUCUGUA [JR_SV3TOV1_Sub039] (puzzle: Sensor v3, turn-off variant 1) ?
-- reply 38.9

-- ask // lookup apparent KD of MS2 coat protein for UUCAUGUGAGGAUAUAGUACUCCUUCUAUUAUUUUUGAGUAUUAGAAGGCACAUGAGGAUCACCCAUGUAGUAC [Ex4 - 3 - 39] (puzzle: Exclusion 4)
-- reply 24.6

Then there is this sequence:
-- ask Report apparent KD of MS2 coat protein for AGAAGUAGUAACCGAUCCUACAUGAGGAUCACCCAUGUAGCGGGACGUGCACGCGAAGCUCGUCAGACUACCAGAUG [salish99_TOv1_r3_024] (puzzle: Sensor v3, turn-off variant 1) please.
-- reply 26.7

###

test system: K4 kissing-loop RNA reporter; test: apparent KD of K4 kissing-loop reporter; higher = weaker reporter binding; conditions: Eterna round: R107; input ligand: arginine 13.2 mM
Parameter: apparent KD of K4 kissing-loop reporter
Record the result as number plus unit.

-- ask Report apparent KD of K4 kissing-loop reporter for UAUUUAAAUAAAAUAAAAUAAAUUGCUGAUACCAGAGUCAAUUGACUCCCUUGGCAGCGGAUCGAGUGAUGUUCGUAAAAUUUAU [AK2.1 SS Theophylline A] please.
-- reply 57.7 nM

-- ask Item UGUACCGAGUCAGGAUAUCAACGACUGACAAAGUCGGUCGAAUAUCCAGUGAUGUUGGAAAAUAACUGAGAAGGGACUUGGUACU [FmnBS 13 #SwitchBubble #StaticStem] has what recorded apparent KD of K4 kissing-loop reporter?
-- reply 629 nM

-- ask # query: apparent KD of K4 kissing-loop reporter of entry CCGCGGCAAGCUCCGGAACCCAUAUUCGAUACCAGCCUUAUCACGGGCCCUUGGCAGCGAGCGUUAGUGAUGUUAGCGGCAUGGU [theeternabot_sameState_KL_Theo_A_27]
-- reply 256 nM

-- ask Give its apparent KD of K4 kissing-loop reporter value. Item: "AAGCAGUCACUCUAAGCCAUCGAAGAUGGUCGAGGACCGGUACGGCCGCCACUCGGAGUGAUGUUCCGAAGACUGCAAAAUAAAA"
-- reply 393 nM

-- ask // lookup apparent KD of K4 kissing-loop reporter for ACCUGUGACUGAAGGAGCGUCUACUCCAGAGGAUGGAGUGAUGUUCCACUUUAAUGGAGUGGACAGGUAGGUCGCAGUCAUAGGA [Arg B SS t6]
-- reply 94.5 nM

Continuing:
-- ask Tell me the measured apparent KD of K4 kissing-loop reporter of AAUUUAUUAACUGAUACCAGACUUUAGCGCGUUUAUAAGUCAAGUGAUGUUUGACUAAUUGUCCCUUGGCAGCAGUAUUUAUUAA [JR_SSTheophyB_Sub021] , please.
-- reply 210 nM

###

system: MS2 coat protein; assay: apparent KD of MS2 coat protein; designed switch direction (-1 OFF switch, 1 ON switch): -1; higher = weaker reporter binding; settings: input ligand: none
Overview of reported apparent KD of MS2 coat protein across a group of sequences:
Could you give me the number in nM? Just the number is fine.

-- ask Any idea what apparent KD of MS2 coat protein was measured for AGUAGUUACGCAGGAUAUGAGGAUCACCCAUAGAAGGAUAUCGAAAGAGAAGGUCUGAGGAUUACCCAGAAGGGCGUGACUACA [pwkr exNG2 2xF5 2xFMN.5] (Eterna round: R96, puzzle: Exclusion NG 2) ?
-- reply 136

Next:
-- ask Would you mind telling me what apparent KD of MS2 coat protein value was observed for UCGACGUCGUCAGGAUAUAGUUUUAAUGUCAUGCUUUUGUUCGUACAUGAGGAUCACCCAUGUGGCUAGAAGGGACUAAAGAUU [JR_ExcNG2_Sub014] (Eterna round: R96, puzzle: Exclusion NG 2) ?
-- reply 18.8

###

tested on: K4 kissing-loop RNA reporter; assay: apparent KD of K4 kissing-loop reporter; higher = weaker reporter binding; conditions: Eterna round: R107; input ligand: FMN 200 uM;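 note: bound reporter read as fluorescence of individual clusters on recovered sequencing chips by microscopy, with normalized cluster intensities fitted with a binding model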
Parameter: apparent KD of K4 kissing-loop reporter
Could you write the number and then its unit?

-- ask Recorded apparent KD of K4 kissing-loop reporter for UAUCUUUGCUGAAGGAGCGAGCAUGUUGGAGUGAUGUUCCGUGCGAGUGAUGUUCGCAUAGCUCAGGUAGGUCGCAGUGGGAGGA [KL-SSArg B29] , please?
-- reply 120 nM

***
-- ask Which apparent KD of K4 kissing-loop reporter is listed for CCCAGUGAUGUUGGUUAAUAUAUUGAUUAACGAGGACCGGUACGGCCGCCACUCGAUAUUUCUAUAAUUAAAAGUUUUGUUUAAA [JR_SSTryptoA_Sub001] ?
-- reply 459 nM

###

tested on: MS2 coat protein; experiment: apparent KD of MS2 coat protein; designed switch direction (-1 OFF switch, 1 ON switch): -1; higher = weaker reporter binding; conditions: input ligand: none
Categories are defined by ranges of apparent KD of MS2 coat protein, namely one = under 20 nM, two = from 20 nM up to 50 nM, three = 50 nM and over

-- ask The entry to classify is CGGUAAAUAGGAUAUACAUGAGGAUCACCCAUGUUCCAUAGCACUCGGAGGGUUCCCAGUAGAAGGGUUGGCCU [EX3 C.17] (Eterna round: R97, puzzle: Exclusion 3) ; which class holds it?
-- reply one

-- ask Bin? UUAAUUAAUUAAGCGCAAGAUCACAUGAGGAUCACCCAUGUAUAGGAUAUCAGCUCGUUUAGAGCUGAGAAGGAUACAUAGCGC [ExNG3/2-A2] (Eterna round: R96, puzzle: Exclusion NG 3)
-- reply three

-- ask Hello team, could you let me know which band the following sequence falls into: AGUACUGACACGAAAGUGUUAGUACAAUAAGCUUGUGAAACAUGAGGAUCACCCAUGUCCUCAUAAGCUCGUCUUAU [salish99_TOv2_r3_017] (Eterna round: R96, puzzle: Sensor v3, turn-off variant 2)
-- reply one

-- ask Input GGUUGGCGAGGAUAUACAUGAGGAUCACCCAUGUGGUCCUGUGGAAAAAAAAACCUUUGUAGAAGGCGCGGGUC [salish99_ex3_r4_032] (Eterna round: R97, puzzle: Exclusion 3) ; output its category
-- reply three

-- ask // bin(item) where item = GCUGUAGAAGGAUAUGCUUCGACUCACAUGAGGAUCACCCAUGUCUUCGUGCAGUCGUCUGCAGAAGGUCUCCAGU [EX5 C.8] (Eterna round: R97, puzzle: Exclusion 5)
-- reply three

-- ask Kindly state the category for this sequence: GGGACCCUUGUAGGAUAUAGAACCGCAGGAGGUCUAGAAGGGCACUGGUCGCCGUGGACAUGAGGAUCACCCAUGUGUUUGCCC [Eternabot solution 36] (Eterna round: R96, puzzle: Exclusion NG 1)
-- reply three

-- ask Which of the defined bands does the recorded apparent KD of MS2 coat protein of ACAUGAGGAUCACCCAUGUCCGUCUGAUCUGUCUCGGCUGUCGAGGAUAUAGCCCGGUAUCCGCGCUAGAAGGUGGGAGUCGGA [Aenatbe mod 100] (Eterna round: R96, puzzle: Exclusion NG 3) sit within?
-- reply two

-- ask Band assignment needed for AACUGGACAGGAUAUGUUCUUGAGCACUUGAGGAUCACCCAAGUCAUCAAGAACUCAGGCACAGAAGGGUUUAUGU [salish99_ex5_r4_002] (Eterna round: R97, puzzle: Exclusion 5) please.
-- reply one

Next, consider the following sequence.
-- ask # classify by apparent KD of MS2 coat protein band: UUGUAGUCAGGAUAUACAUGAGGAUCACCCAUGUAAAAUUUUAAUUUAAUUUGAAGGUGUAGAAGGGACCAGUU [Ex3 #24] (Eterna round: R97, puzzle: Exclusion 3)
-- reply two
